Measured growth inhibition values are reported for all entries that follow.
# MEASUREMENT NOTES: NCI Yeast Anticancer Drug Screen. Data for the wt2 strain (AID 169);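 note: 0% = growth of vehicle-treated yeast cultures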
# COND: S. cerevisiae wt2 strain growth inhibition; at 3.7 µM; active compounds read high
The panel holds about 79,000 compounds, 15% with a hit somewhere; the sample as a whole holds those more often.
READOUT TYPE: growth inhibition (%)

compound="COc1cc(C2SCC(=O)N2c2ccc(-c3ccc(-n4c(-c5ccccc5)nc5ccccc5c4=O)cc3)cc2)ccc1O (centres undefined)" unit_info=% val=-2
compound="O=C(c1ccc([N+](=O)[O-])cc1)C1N=NCC1c1ccccc1 (centres undefined)" unit_info=% val=-1
compound=CCN(CC)CCOc1cc(C)c2cc(Cc3ccccc3)ccc2n1 unit_info=% val=-2
compound=CC(=O)Nc1ccc2c(c1)-c1ccccc1C2=O unit_info=% val=4
